Assay: Determination of half-lives for the imine hydrolysis in model compounds (AMC release, fluorescence)
Conditions: acetate buffer, pH 5
MEASURE NAME: half-life

STRUCTURE NOTATION: Cc1cc(=O)oc2cc(NC(=O)OCc3ccc(N=Cc4ccccc4)cc3)ccc12
half-life: 34 min

Request: Identify measured half-life associated with `Cc1cc(=O)oc2cc(NC(=O)OCc3ccc(N=Cc4c(F)c(F)cc(F)c4F)cc3)ccc12`
Result: 34 min
